# Test system: PAXF 2005
# procedure-summary: In vitro 3D clonogenic assay
# Format: cell-based
# measurement-setup: Homo sapiens, read-out: Relative IC50
assay-endpoint: pIC50
A value of pIC50 is the negative decimal logarithm of a concentration given in moles per litre.

Identify measured pIC50 corresponding to CC(=O)N=c1sc(S(N)(=O)=O)nn1C [Methazolamide]
3.22

---

# Tested on: PAXF 2059L
# procedure-summary: In vitro 2-D assay (CellTiter-Blue cell viability, 96 h)
# Format: cell-based
# measurement-setup: Homo sapiens, PAXF 2059, 96 hours treatment, read-out: Absolute IC50
assay-endpoint: pIC50
pIC50 is a log-scale quantity: -log10 of the concentration expressed in molar.

For CC(=O)N=c1sc(S(N)(=O)=O)nn1C [Methazolamide] , write its pIC50.
2.69

---

# Test system: 11 human tumor xenograft-derived cell suspensions or tumor cell lines of pancreatic cancer
# procedure-summary: In vitro 3D clonogenic assay, whole panel (geometric mean)
# Assay type: cell-based
# measurement-setup: read-out: Absolute IC50, Geometric mean
assay-endpoint: pIC50
Hey, just a heads up that pIC50 is the negative log base 10 of the concentration in molar.

Please list pIC50 recorded for the compound CC(=O)N=c1sc(S(N)(=O)=O)nn1C [Methazolamide]
3.11

---

# Test system: PAXF 546L
# procedure-summary: In vitro 2-D assay (CellTiter-Blue cell viability, 96 h)
# Type: cell-based
# measurement-setup: Homo sapiens, PAXF 546, 96 hours treatment, read-out: Relative IC50
assay-endpoint: IC50 (mM)
Use mM as the unit, but write only the number.

Specify measured IC50 for CC(=O)N=c1sc(S(N)(=O)=O)nn1C [Methazolamide] .
3.05

---

# System: PAXF 2005L
# procedure-summary: In vitro 2-D assay (CellTiter-Blue cell viability, 96 h)
# Type: cell-based
# measurement-setup: Homo sapiens, PAXF 2005, 96 hours treatment, read-out: Absolute IC50
assay-endpoint: IC50 (µM)
Could you give me the number in µM? Just the number is fine.

Fill in IC50 for CC(=O)N=c1sc(S(N)(=O)=O)nn1C [Methazolamide] tested with PAXF 2005L.
1840

---

# Test system: PAXF PA-TU-8902
# procedure-summary: In vitro 2-D assay (CellTiter-Blue cell viability, 96 h)
# Type: cell-based
# measurement-setup: Homo sapiens, PaTu 8902, PAXF PA-TU-8902, 96 hours treatment, read-out: Relative IC50
assay-endpoint: IC50 (µM)
Value expressed in µM; do not type the unit.

Supply reported IC50 belonging to this compound: CC(=O)N=c1sc(S(N)(=O)=O)nn1C [Methazolamide]
1130

---

# Tested on: PAXF MIA-Pa-Ca-2
# procedure-summary: cells
# measurement-setup: Homo sapiens, MIA PaCa-2, read-out: Relative IC50
assay-endpoint: IC50 (µM)
I only need the number, in µM, no unit after it.

Note IC50 for the compound shown: CC(=O)N=c1sc(S(N)(=O)=O)nn1C [Methazolamide]
489

---

# System: twelve selected human pancreatic cancer cell lines
# procedure-summary: cells
# measurement-setup: Homo sapiens, Pancreatic cancer cell, read-out: Individual IC50 values, range over cell lines
pIC50: −log10 of the molar value.
assay-endpoint: pIC50

Find pIC50 for CC(=O)N=c1sc(S(N)(=O)=O)nn1C [Methazolamide] on twelve selected human pancreatic cancer cell lines and write it down.
2.27 to 3.14
